procedureDetails: physchem
studyConditions: Trifluoroethanol, Solubility at 50° C.
Counter-ions that a name gives are not always drawn. Residues, ends and D or L forms follow the SMILES beside them.
resultType: solubility

Supply measured solubility of Cc1cc(O)cc(C)c1C[C@H](NC(=O)[C@H](N)CCCNC(=N)N)C(=O)N[C@@H](CCCCN)C(=O)N[C@@H](Cc1ccccc1)C(N)=O [MTP-131 HCl] (HELM PEPTIDE1{[dR].[Cc1cc(O)cc(C)c1C[C@H](N[*:1])C(=O)[*:2]].K.F.[am]}$$$$V2.0) in your reply.
< 10000 µg/mL

----------
procedureDetails: physchem
studyConditions: Acetonitrile:Water (99:1 v/v), Solubility at 50° C., Acetonitrile:Water (99:1 v/v)
Structures can show the parent of a compound that is named as a salt. Residues, ends and D or L forms follow the SMILES beside them.
resultType: solubility

Supply measured solubility of Cc1cc(O)cc(C)c1C[C@H](NC(=O)[C@H](N)CCCNC(=N)N)C(=O)N[C@@H](CCCCN)C(=O)N[C@@H](Cc1ccccc1)C(N)=O [MTP-131 HCl] (HELM PEPTIDE1{[dR].[Cc1cc(O)cc(C)c1C[C@H](N[*:1])C(=O)[*:2]].K.F.[am]}$$$$V2.0) in your reply.
< 10 mg/mL

----------
procedureDetails: physchem
studyConditions: THF:Water (99:1 v/v), Solubility at 50° C., THF:Water (99:1 v/v)
Structures can show the parent of a compound that is named as a salt. Residues, ends and D or L forms follow the SMILES beside them.
resultType: solubility

Supply measured solubility of Cc1cc(O)cc(C)c1C[C@H](NC(=O)[C@H](N)CCCNC(=N)N)C(=O)N[C@@H](CCCCN)C(=O)N[C@@H](Cc1ccccc1)C(N)=O [MTP-131 HCl] (HELM PEPTIDE1{[dR].[Cc1cc(O)cc(C)c1C[C@H](N[*:1])C(=O)[*:2]].K.F.[am]}$$$$V2.0) in your reply.
< 10000 µg/mL

----------
procedureDetails: physchem
studyConditions: DCM:DMSO (85:15 v/v), Solubility at 50° C., DCM:DMSO (85:15 v/v)
Structures can show the parent of a compound that is named as a salt. Residues, ends and D or L forms follow the SMILES beside them.
resultType: solubility

Supply measured solubility of Cc1cc(O)cc(C)c1C[C@H](NC(=O)[C@H](N)CCCNC(=N)N)C(=O)N[C@@H](CCCCN)C(=O)N[C@@H](Cc1ccccc1)C(N)=O [MTP-131 HCl] (HELM PEPTIDE1{[dR].[Cc1cc(O)cc(C)c1C[C@H](N[*:1])C(=O)[*:2]].K.F.[am]}$$$$V2.0) in your reply.
< 10000 µg/mL

----------
procedureDetails: physchem
studyConditions: Acetone, Solubility at 50° C.
Counter-ions that a name gives are not always drawn. Residues, ends and D or L forms follow the SMILES beside them.
resultType: solubility

Supply measured solubility of Cc1cc(O)cc(C)c1C[C@H](NC(=O)[C@H](N)CCCNC(=N)N)C(=O)N[C@@H](CCCCN)C(=O)N[C@@H](Cc1ccccc1)C(N)=O [MTP-131 HCl] (HELM PEPTIDE1{[dR].[Cc1cc(O)cc(C)c1C[C@H](N[*:1])C(=O)[*:2]].K.F.[am]}$$$$V2.0) in your reply.
< 10000 µg/mL
